- Measured target: Tyrosyl-tRNA synthetase, putative (Trypanosoma cruzi (strain CL Brener)) (UniProt Q4DSP6)
- Sequence (Q4DSP6 as listed by the source): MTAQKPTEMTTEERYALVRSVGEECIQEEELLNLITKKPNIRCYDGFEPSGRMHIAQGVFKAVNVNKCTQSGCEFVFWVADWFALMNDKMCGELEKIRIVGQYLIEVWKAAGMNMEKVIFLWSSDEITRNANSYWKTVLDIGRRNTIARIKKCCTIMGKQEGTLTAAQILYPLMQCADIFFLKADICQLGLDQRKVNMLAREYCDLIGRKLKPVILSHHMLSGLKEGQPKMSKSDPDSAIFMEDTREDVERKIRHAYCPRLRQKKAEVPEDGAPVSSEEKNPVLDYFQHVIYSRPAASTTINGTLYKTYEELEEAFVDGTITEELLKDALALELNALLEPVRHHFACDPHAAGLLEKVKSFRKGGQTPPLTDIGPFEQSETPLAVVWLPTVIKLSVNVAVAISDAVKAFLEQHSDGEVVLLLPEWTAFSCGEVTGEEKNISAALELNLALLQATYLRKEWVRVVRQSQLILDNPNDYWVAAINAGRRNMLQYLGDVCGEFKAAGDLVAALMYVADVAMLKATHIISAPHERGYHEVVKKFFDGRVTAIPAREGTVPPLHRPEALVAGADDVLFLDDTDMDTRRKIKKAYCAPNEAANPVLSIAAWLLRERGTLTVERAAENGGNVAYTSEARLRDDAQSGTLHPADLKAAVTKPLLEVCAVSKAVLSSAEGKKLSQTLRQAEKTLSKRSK
- Method notes: Trypanosoma cruzi tyrosyl tRNA synthetase (TcYRS) _High Tyrosine SOP
- Assay type: functional
- Parameters: scale not given: in the data most compounds retested in dose-response had high values
- Cond: 30 µM
Reported Percent Effect values are given for each entry in this list.
# output: bare number, implied unit %

Worked examples, 4 molecules total:
>  <Molecule>
Cc1nc(C)n(C2CCCN(C(=O)c3ccc4c(c3)COC4)C2)n1 (stereo unspecified)

>  <Result units>
%

>  <Assay value>
2.97

$$$$
>  <Molecule>
COCc1n[nH]/c(=N/C(=O)COc2cnc(C)cc2O)s1

>  <Result units>
%

>  <Assay value>
3.19

$$$$
>  <Molecule>
CCCOc1ccc(CNC2CCCc3c2cnn3CC)cc1OC (stereo unspecified)

>  <Result units>
%

>  <Assay value>
9.36

$$$$
>  <Molecule>
CN(C)C(=O)Cc1ccc(NC(=O)NC2CCCCC2)cc1

>  <Result units>
%

>  <Assay value>
1.59

$$$$

Incoming: Which Percent Effect reading was recorded for the molecule CC(C)c1noc(CCC(=O)NC(C)c2nnc3n2CCCCC3)n1 (stereo unspecified) ?
Outgoing: -9.68

Incoming: // Percent Effect lookup, key: Cc1cnn(C2CCCN(C(=O)c3ccn(C)c(=O)c3)C2)c1 (stereo unspecified)
Outgoing: 3.81

Incoming: May I ask what Percent Effect has been recorded for CCCc1noc(CCC(=O)N2CCCC2c2noc(C3CC3)n2)n1 (stereo unspecified) ?
Outgoing: 1.48

Incoming: Item O=C(c1ccnnc1)N1C[C@H]2CCC[C@@]2(COCC2CCOCC2)C1 has what recorded Percent Effect?
Outgoing: -1.08

Hello, the source for this data is ChEMBL document CHEMBL3988442, in case you need it.
